target: HLA-A*02:01 (Homo sapiens, UniProt P04439, D140Y/D185E/D98H/E176V/E277Q/G131W/G231S/I119V/I121R/I166T/I218V/L300P/L318F/N151K/N90K/P208A/P217A/Q86G/Q94H/R138H/R169H/T345S); assay: MHC binding assay (UV-ligand exchange, ELISA, peptide exchange yield); settings: binding of HLA-class I restricted peptides to HLA-A*02:01
ATTRIBUTE MEASURED: Peptide exchange (MHC class I binding score, peptide exchange yield)

> print(dat)
                                  substance      recorded.value
1  241 (SLVEVNPAYSV; listed as Homo sapiens) [compound 241]  ″+++″ (≥50% = +++)
2  107 (FLQPVDDTQHL; listed as Homo sapiens) [compound 107]  ″+++″ (≥50% = +++)
3  278 (QLLDVVLTI; listed as Homo sapiens) [compound 278]    ″++″ (≥20% = ++)
4  84 (VTFGEKLLGV; listed as Homo sapiens) [compound 84]    ″++″ (≥20% = ++)
5  341 (SQIALNEKLVNL; listed as Homo sapiens) [compound 341]  ″+++″ (≥50% = +++)

* * *

target: HLA-A*02:01 (Homo sapiens, UniProt P04439, D140Y/D185E/D98H/E176V/E277Q/G131W/G231S/I119V/I121R/I166T/I218V/L300P/L318F/N151K/N90K/P208A/P217A/Q86G/Q94H/R138H/R169H/T345S); experiment: MHC binding assay (UV-ligand exchange, ELISA, peptide exchange yield); settings: binding of HLA-class I restricted peptides to HLA-A*02:01
ATTRIBUTE MEASURED: Peptide exchange (MHC class I binding score, peptide exchange yield)

> print(dat)
                                   substance        recorded.value
 1  562 (YLEELPEKLKL; listed as Homo sapiens) [compound 562]    ″+++″ (≥50% = +++)
 2  240 (ILLEQAFYL; listed as Homo sapiens) [compound 240]    ″+++″ (≥50% = +++)
 3  121 (GVVDPRAISVL; listed as Homo sapiens) [compound 121]      ″++″ (≥20% = ++)
 4  617 (ALMYESEKVGV; listed as Homo sapiens) [compound 617]    ″+++″ (≥50% = +++)
 5  438 (KLLPLAGLYL; listed as Homo sapiens) [compound 438]  ″++++″ (≥75% = ++++)
 6  220 (LLQKFVPEI; listed as Homo sapiens) [compound 220]      ″++″ (≥20% = ++)
 7  221 (ALYEEGLLL; listed as Homo sapiens) [compound 221]      ″++″ (≥20% = ++)
 8  585 (ALWDLAADKQTL; listed as Homo sapiens) [compound 585]  ″++++″ (≥75% = ++++)
 9  364 (LLQNEQFEL; listed as Homo sapiens) [compound 364]    ″+++″ (≥50% = +++)
10  450 (FMIDASVHPTL; listed as Homo sapiens) [compound 450]    ″+++″ (≥50% = +++)
11  225 (SLLKVLPAL; listed as Homo sapiens) [compound 225]    ″+++″ (≥50% = +++)
12  265 (LLFGGTKTV; listed as Homo sapiens) [compound 265]      ″++″ (≥20% = ++)
13  494 (ALQPEPIKV; listed as Homo sapiens) [compound 494]      ″++″ (≥20% = ++)
14  146 (SLATAGDGLIEL; listed as Homo sapiens) [compound 146]      ″++″ (≥20% = ++)
15  119 (FLYIGDIVSL; listed as Homo sapiens) [compound 119]  ″++++″ (≥75% = ++++)
16  24 (SLSDGLEEV; listed as Homo sapiens) [compound 24]      ″++″ (≥20% = ++)
17  160 (FLFDEEIEQI; listed as Homo sapiens) [compound 160]    ″+++″ (≥50% = +++)
18  211 (LLWPGAALL; listed as Homo sapiens) [compound 211]      ″++″ (≥20% = ++)
19  275 (YLVYILNEL; listed as Homo sapiens) [compound 275]      ″++″ (≥20% = ++)
20  222 (NLIENVQRL; listed as Homo sapiens) [compound 222]      ″++″ (≥20% = ++)
21  186 (TLFFQQNAL; listed as Homo sapiens) [compound 186]      ″++″ (≥20% = ++)
22  169 (NLPEYLPFV; listed as Homo sapiens) [compound 169]    ″+++″ (≥50% = +++)
23  295 (VLDRESPNV; listed as Homo sapiens) [compound 295]    ″+++″ (≥50% = +++)
24  375 (SLTETIEGV; listed as Homo sapiens) [compound 375]      ″++″ (≥20% = ++)
25  377 (FLLDSSASV; listed as Homo sapiens) [compound 377]      ″++″ (≥20% = ++)
26  154 (ALDDGTPAL; listed as Homo sapiens) [compound 154]      ″++″ (≥20% = ++)
27  124 (ALYETELADA; listed as Homo sapiens) [compound 124]      ″++″ (≥20% = ++)
28  179 (KVLNELYTV; listed as Homo sapiens) [compound 179]    ″+++″ (≥50% = +++)
29  577 (VMFEDGVLMRL; listed as Homo sapiens) [compound 577]    ″+++″ (≥50% = +++)
30  595 (VLLSIYPRV; listed as Homo sapiens) [compound 595]    ″+++″ (≥50% = +++)
31  333 (FLPDANSSV; listed as Homo sapiens) [compound 333]      ″++″ (≥20% = ++)
32  239 (AAFAGKLLSV; listed as Homo sapiens) [compound 239]    ″+++″ (≥50% = +++)

* * *

target: HLA-A*02:01 (Homo sapiens, UniProt P04439, D140Y/D185E/D98H/E176V/E277Q/G131W/G231S/I119V/I121R/I166T/I218V/L300P/L318F/N151K/N90K/P208A/P217A/Q86G/Q94H/R138H/R169H/T345S); experiment: MHC binding assay (UV-ligand exchange, ELISA, peptide exchange yield); details: binding of HLA-class I restricted peptides to HLA-A*02:01
ATTRIBUTE MEASURED: Peptide exchange (MHC class I binding score, peptide exchange yield)

> print(dat)
                                  substance      recorded.value
1  609 (ALWKQLLEL; listed as Homo sapiens) [compound 609]  ″+++″ (≥50% = +++)
2  541 (SMLEPVPEL; listed as Homo sapiens) [compound 541]  ″+++″ (≥50% = +++)
3  38 (FLLEDDIHVS; listed as Homo sapiens) [compound 38]  ″+++″ (≥50% = +++)
4  92 (YLIPFTGIVGL; listed as Homo sapiens) [compound 92]    ″++″ (≥20% = ++)
5  113 (GLLPTPLFGV; listed as Homo sapiens) [compound 113]  ″+++″ (≥50% = +++)
6  385 (SLLEQGLVEA; listed as Homo sapiens) [compound 385]    ″++″ (≥20% = ++)
7  492 (SLFDGFADGLGV; listed as Homo sapiens) [compound 492]  ″+++″ (≥50% = +++)
8  459 (ALITEVVRL; listed as Homo sapiens) [compound 459]    ″++″ (≥20% = ++)

* * *

target: HLA-A*02:01 (Homo sapiens, UniProt P04439, D140Y/D185E/D98H/E176V/E277Q/G131W/G231S/I119V/I121R/I166T/I218V/L300P/L318F/N151K/N90K/P208A/P217A/Q86G/Q94H/R138H/R169H/T345S); assay: MHC binding assay (UV-ligand exchange, ELISA, peptide exchange yield); settings: binding of HLA-class I restricted peptides to HLA-A*02:01
ATTRIBUTE MEASURED: Peptide exchange (MHC class I binding score, peptide exchange yield)

> print(dat)
                                   substance        recorded.value
 1  194 (ALPLFVITV; listed as Homo sapiens) [compound 194]    ″+++″ (≥50% = +++)
 2  307 (ALPVSLPQI; listed as Homo sapiens) [compound 307]    ″+++″ (≥50% = +++)
 3  7 (SLVGLLLYL; listed as Homo sapiens) [compound 7]  ″++++″ (≥75% = ++++)
 4  172 (VLYSYTIITV; listed as Homo sapiens) [compound 172]      ″++″ (≥20% = ++)
 5  381 (FIDEAYVEV; listed as Homo sapiens) [compound 381]      ″++″ (≥20% = ++)
 6  150 (RLWEEGEELEL; listed as Homo sapiens) [compound 150]    ″+++″ (≥50% = +++)
 7  245 (SMIDDLLGV; listed as Homo sapiens) [compound 245]    ″+++″ (≥50% = +++)
 8  515 (LLQELVLFL; listed as Homo sapiens) [compound 515]    ″+++″ (≥50% = +++)
 9  558 (GLLENIPRV; listed as Homo sapiens) [compound 558]    ″+++″ (≥50% = +++)
10  181 (LLWAGTAFQV; listed as Homo sapiens) [compound 181]    ″+++″ (≥50% = +++)
11  285 (QLLHVGVTV; listed as Homo sapiens) [compound 285]    ″+++″ (≥50% = +++)
12  383 (ALLELENSVTL; listed as Homo sapiens) [compound 383]    ″+++″ (≥50% = +++)
13  177 (YLLPEEYTSTL; listed as Homo sapiens) [compound 177]  ″++++″ (≥75% = ++++)
14  296 (FMEGAIIYV; listed as Homo sapiens) [compound 296]    ″+++″ (≥50% = +++)
15  50 (SLSELEALM; listed as Homo sapiens) [compound 50]    ″+++″ (≥50% = +++)
16  399 (YLFEPLYHV; listed as Homo sapiens) [compound 399]    ″+++″ (≥50% = +++)
17  188 (GLFPVTPEAV; listed as Homo sapiens) [compound 188]    ″+++″ (≥50% = +++)
18  271 (LVYPLELYPA; listed as Homo sapiens) [compound 271]    ″+++″ (≥50% = +++)
19  499 (KIFDIDEAEEGV; listed as Homo sapiens) [compound 499]      ″++″ (≥20% = ++)
20  340 (ALLSMTFPL; listed as Homo sapiens) [compound 340]  ″++++″ (≥75% = ++++)
21  401 (ILLDDTGLAYI; listed as Homo sapiens) [compound 401]    ″+++″ (≥50% = +++)
22  543 (GLLPTPITQQASL; listed as Homo sapiens) [compound 543]    ″+++″ (≥50% = +++)
23  306 (ALVNVQIPL; listed as Homo sapiens) [compound 306]    ″+++″ (≥50% = +++)
24  486 (AVMESIQGV; listed as Homo sapiens) [compound 486]    ″+++″ (≥50% = +++)
25  57 (TLAELQPPVQL; listed as Homo sapiens) [compound 57]    ″+++″ (≥50% = +++)
26  571 (LLLTTIPQI; listed as Homo sapiens) [compound 571]    ″+++″ (≥50% = +++)
27  388 (SLTIDGIRYV; listed as Homo sapiens) [compound 388]    ″+++″ (≥50% = +++)
28  434 (KVSNSGITRV; listed as Homo sapiens) [compound 434]      ″++″ (≥20% = ++)
29  433 (AMLNEPWAV; listed as Homo sapiens) [compound 433]    ″+++″ (≥50% = +++)
30  219 (KLSDIGITV; listed as Homo sapiens) [compound 219]    ″+++″ (≥50% = +++)
